# test: chemical genetic growth profiling, strain panel (AID 1159580);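 further: tested at 20 µM; growth read once vehicle control cultures reached saturation at 30 °C; 1 = growth at the plate median or of vehicle wells; lower values mean less growth of the strain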
# conditionsUsed: S. cerevisiae deletion strains, growth OD, locus YDR392W, strain spt3
About 2,000 (36%) of roughly 5,500 compounds were called active. Roughly 18% stayed inconclusive and do not appear here. No stated cut-off is given here; in the data, active means normalized growth mostly below about 0.91 (no sharp cut-off); inconclusive means no clear call, values can overlap the other calls; inactive means mostly above about 0.92. The list shows a part of the results.
# output must be one of label 1 for active, label 0 for inactive

Dear all, I need the recorded test outcome for CC1=C(C(=O)O)N2C(=O)[C@@H](NC(=O)[C@H](N)C3=CCC=CC3)C2SC1 (stereo partly specified) , thank you.
label 0

Recorded test call requested for C[C@]12C=CC(=O)C=C1CCC1C2CC[C@]2(C)C(=O)CCC12 (stereo partly specified)
label 0

GET /call?item= C[C@]12C=CC(=O)C=C1CCC1C2C(=O)C[C@@]2(C)C1CC[C@]2(O)C(=O)CO (stereo partly specified) returns the recorded outcome of this test.
label 0

For CC(=O)Oc1ccc2c(c1)CCC1C2CC[C@@]2(C)C1CC[C@@H]2OC(C)=O (stereo partly specified) , what call appears in the results of this test?
label 1

In this assay, the call recorded for Cc1cc(C)nc(NS(=O)(=O)c2ccc(N)cc2)n1 was what?
label 0

// param item: CC(=O)O[C@H]1CC2CCC3C(CC[C@@]4(C)C3C[C@H]([N+]3(C)CCCCC3)[C@@H]4OC(C)=O)[C@@]2(C)C[C@@H]1[N+]1(C)CCCCC1 (stereo partly specified) ; yields the recorded call
label 0
